B1: PTPRD (parent)
chain: MVHVARLLLLLLTFFLRTDAETPP

variants of: B1; test: protein stability index of a GFP-peptide fusion (GPS, HEK-293T) (PSI 1-6); higher = more stable; conditions: c terminus: a fixed tail appended;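 further: lentivirally expressed fusions sorted by FACS into six bins by GFP to DsRed ratio, PSI derived from sequencing read proportions per bin multiplied by bin number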
Mark Not satisfied for protein stability index values under 2, and Satisfied for everything at or above.

Reference set (3 entries):
seq_string	qualitative_label
MVHVARLLILLLTFFLRTDAETPP [L9I]	Satisfied
MVHVARLLLLLLTFFLRTNAETPP [D19N]	Satisfied
MVHVARLLLLLLTFFSRTDAETPP [L16S]	Satisfied

Textbook exercise: given the entry MVHVARLLLELLTFFLRTDAETPP [L10E] , state whether its protein stability index is greater than or equal to 2.
Satisfied

Is reported protein stability index greater than or equal to 2 here: MVHVARLLLLLLTFFLRTDAETPL [P24L]
Satisfied

hey, is protein stability index for this one >= 2? MVHVLRLLLLLLTFFLRTDAETPP [A5L]
Satisfied

Say whether MVHVARLLLLLLTFELRTDAETPP [F15E] shows protein stability index of 2 or more.
Satisfied

Is it the case that MVHVARLLWLLLTFFLRTDAETPP [L9W] has protein stability index reaching or exceeding 2?
Satisfied

Has MVHVARLLLLLLIFFLRTDAETPP [T13I] a recorded protein stability index greater than or equal to 2?
Satisfied

Dear colleague, could you confirm whether MVHVARLLLLLLHFFLRTDAETPP [T13H] has protein stability index at or above 2?
Not satisfied

Check this variant for protein stability index at or above 2: MVHVTRLLLLLLTFFLRTDAETPP [A5T]
Satisfied

Confirm if protein stability index reported for the variant MVHVARLLLLLLTFFLPTDAETPP [R17P] is 2 or above.
Not satisfied

Is the recorded value of protein stability index equal to or greater than 2 for this variant? MVHVARLLLLLQTFFLRTDAETPP [L12Q]
Satisfied

Is the recorded value of protein stability index equal to or greater than 2 for this variant? MVHNARLLLLLLTFFLRTDAETPP [V4N]
Satisfied

Does the reported protein stability index for MFHVARLLLLLLTFFLRTDAETPP [V2F] fall at or above the 2 mark?
Satisfied

Does MVHVARLLLLLLSFFLRTDAETPP [T13S] have a reported protein stability index of at least 2?
Satisfied

Could you tell me if the measured protein stability index of MVHVARLLLLLLTAFLRTDAETPP [F14A] reaches 2 or more?
Not satisfied

Evaluate MVHVARLLLLLLTFFWRTDAETPP [L16W] : protein stability index at minimum 2?
Not satisfied

Hi team, for MVTVARLLLLLLTFFLRTDAETPP [H3T] , is the recorded protein stability index at or above 2?
Satisfied

Each recorded value in this set is attributed to the supplement of paper PMC10567573.
